Catalogue of TD50 readings, one per entry.
protocolText: Neurologic toxicity using rotarod test in rat after oral administration
Assay type: organism-based
measurementConditions: in vivo
measurementName: TD50

INSERT INTO measurements (compound, measuredresult) VALUES
  ('COC[C@H](NC(C)=O)C(=O)NCc1cccc(N=C=S)c1', '> 150 mg/kg'),
  ('COC[C@H](NC(C)=O)C(=O)NCc1ccccc1', '> 30 mg/kg'),
  ('COCC(NC(C)=O)C(=O)NCc1ccccc1 (racemic)', '37 mg/kg'),
  ('C=CC(=O)NC(COC)C(=O)NCc1ccccc1 (racemic)', '> 30 mg/kg'),
  ('COC[C@H](NC(C)=O)C(=O)NCc1ccc(N=C=S)cc1', '> 30 mg/kg'),
  ('CC(=O)NC(CCCCN=C=S)C(=O)NCc1ccccc1 (racemic)', '> 30 mg/kg'),
  ('COC[C@@H](NC(C)=O)C(=O)NCc1ccc(N=C=S)cc1', '> 250 mg/kg'),
  ('CCCC(NC(C)=O)C(=O)NCc1ccccc1 (racemic)', '> 30 mg/kg'),
  ('COC[C@@H](NC(C)=O)C(=O)NCc1ccccc1 [LACOSAMIDE]', '> 500 mg/kg'),
  ('COC[C@@H](NC(C)=O)C(=O)NCc1cccc(N=C=S)c1', '> 250 mg/kg');

----------
Test system: Mus musculus
protocolText: Anticonvulsant activity using MES test in mice after intraperitoneal administration
Assay type: functional
measurementConditions: ip
measurementName: ED50

INSERT INTO assay_data (compound, studysystem, measuredresult) VALUES
  ('COC[C@H](NC(C)=O)C(=O)NCc1ccc(N=C=S)cc1', 'Mus musculus', '> 100 mg/kg'),
  ('CCOCC(NC(C)=O)C(=O)NCc1ccccc1 (racemic)', 'Mus musculus', '17 mg/kg'),
  ('COC[C@H](NC(=O)CBr)C(=O)NCc1ccccc1', 'Mus musculus', '> 30 mg/kg'),
  ('CCCC(CCC)C(=O)O [VALPROIC ACID]', 'Mus musculus', '270 mg/kg'),
  ('COC[C@@H](NC(=O)CBr)C(=O)NCc1ccccc1', 'Mus musculus', '> 300 mg/kg'),
  ('COC[C@@H](NC(C)=O)C(=O)NCc1ccc(N=C=S)cc1', 'Mus musculus', '24 mg/kg'),
  ('CCC1(c2ccccc2)C(=O)NC(=O)NC1=O [PHENOBARBITAL]', 'Mus musculus', '22 mg/kg'),
  ('CCCC(NC(C)=O)C(=O)NCc1ccccc1 (racemic)', 'Mus musculus', '38 mg/kg'),
  ('COC[C@H](NC(C)=O)C(=O)NCc1cccc(N=C=S)c1', 'Mus musculus', '> 100 mg/kg'),
  ('C=CC(=O)NC(COC)C(=O)NCc1ccccc1 (racemic)', 'Mus musculus', '> 100 mg/kg'),
  ('CC(=O)NC(CCCCN=C=S)C(=O)NCc1ccccc1 (racemic)', 'Mus musculus', '> 30 mg/kg');

----------
Tested on: Rattus norvegicus
protocolText: Anticonvulsant activity using MES test in rat after oral administration
Assay type: functional
measurementName: ED50 (mg/kg)

INSERT INTO measurements (molecule, studysystem, measurementname, valuequalifier, measuredresult) VALUES
  ('CCC1(c2ccccc2)C(=O)NC(=O)NC1=O [PHENOBARBITAL]', 'Rattus norvegicus', 'ED50', '=', 9.1),
  ('O=C1NC(=O)C(c2ccccc2)(c2ccccc2)N1 [PHENYTOIN]', 'Rattus norvegicus', 'ED50', '=', 30),
  ('C=CC(=O)NC(COC)C(=O)NCc1ccccc1 (racemic)', 'Rattus norvegicus', 'ED50', '>', 30),
  ('COC[C@H](NC(C)=O)C(=O)NCc1ccccc1', 'Rattus norvegicus', 'ED50', '>', 30),
  ('COC[C@H](NC(C)=O)C(=O)NCc1cccc(N=C=S)c1', 'Rattus norvegicus', 'ED50', '>', 150),
  ('COC[C@H](NC(C)=O)C(=O)NCc1ccc(N=C=S)cc1', 'Rattus norvegicus', 'ED50', '>', 180),
  ('CC(=O)NC(CCCCN=C=S)C(=O)NCc1ccccc1 (racemic)', 'Rattus norvegicus', 'ED50', '>', 30),
  ('COC[C@@H](NC(C)=O)C(=O)NCc1ccc(N=C=S)cc1', 'Rattus norvegicus', 'ED50', '=', 4.2),
  ('CCCC(NC(C)=O)C(=O)NCc1ccccc1 (racemic)', 'Rattus norvegicus', 'ED50', '=', 30),
  ('COC[C@@H](NC(C)=O)C(=O)NCc1cccc(N=C=S)c1', 'Rattus norvegicus', 'ED50', '=', 28);
